Origin of the recorded values: ChEMBL document CHEMBL5154645

molecular target: Cathepsin B (Homo sapiens); experiment: Inhibition of human recombinant Cathepsin B assessed remaining activity using Z-FR-AMC as substrate incubated for 30 mins by fluorometric assay
Checkbox rule: IC50 lower than 0.3 nM = yes; IC50 not lower than 0.3 nM = no.

Solved cases (4 shown):
Prompt: Answer whether the compound COC1=CC(=O)N(C(=O)/C=C/[C@H](CCc2ccccc2)NC(=O)[C@H](CC(C)C)NC(=O)[C@H](CC(C)C)NC(=O)[C@H](C(C)C)N(C)C)[C@H]1Cc1c[nH]c2ccccc12 has IC50 strictly less than 0.3 nM
Response: yes

Prompt: Consider COC1=CC(=O)N(C(=O)/C=C/[C@H](C)NC(=O)[C@H](CC(C)C)NC(=O)[C@H](CC2CCCCC2)NC(=O)C2CCN(C)CC2)[C@H]1Cc1c[nH]c2ccccc12 . Does its IC50 lie strictly below 0.3 nM?
Response: yes

Prompt: Record CC[C@H](C)[C@@H](C(=O)O[C@@H](CC(C)C)C(=O)N[C@@H](CC(C)C)C(=O)N[C@@H](C)/C=C/C(=O)N1C(=O)C=C(OC)[C@@H]1C)N(C)C [GALLINAMIDE A] : is its IC50 strictly below 0.3 nM?
Response: no

Prompt: Answer whether the compound COC1=CC(=O)N(C(=O)/C=C/[C@H](C)NC(=O)[C@H](CCc2ccccc2)NC(=O)[C@H](CC2CCCCC2)NC(=O)[C@H](C(C)C)N(C)C)[C@H]1Cc1c[nH]c2ccccc12 has IC50 strictly less than 0.3 nM
Response: no

Please find the next compound below.
Prompt: In the record for COC1=CC(=O)N(C(=O)/C=C/[C@H](C)NC(=O)[C@H](CC(C)C)NC(=O)[C@H](CC(C)C)NC(=O)C2CCN(C)CC2)[C@H]1Cc1c[nH]c2ccccc12 , is IC50 less than 0.3 nM?
Response: no
